Data origin: patent EP4768484A1

- testedSystem: Ba/F3 BCR-ABL1 WT (Homo sapiens, UniProt P00519+P11274)
- Construct: BCR (N-terminal fusion partner of the oncoprotein)
- Sequence (P00519 28-1130 limits assumed, one chain of several): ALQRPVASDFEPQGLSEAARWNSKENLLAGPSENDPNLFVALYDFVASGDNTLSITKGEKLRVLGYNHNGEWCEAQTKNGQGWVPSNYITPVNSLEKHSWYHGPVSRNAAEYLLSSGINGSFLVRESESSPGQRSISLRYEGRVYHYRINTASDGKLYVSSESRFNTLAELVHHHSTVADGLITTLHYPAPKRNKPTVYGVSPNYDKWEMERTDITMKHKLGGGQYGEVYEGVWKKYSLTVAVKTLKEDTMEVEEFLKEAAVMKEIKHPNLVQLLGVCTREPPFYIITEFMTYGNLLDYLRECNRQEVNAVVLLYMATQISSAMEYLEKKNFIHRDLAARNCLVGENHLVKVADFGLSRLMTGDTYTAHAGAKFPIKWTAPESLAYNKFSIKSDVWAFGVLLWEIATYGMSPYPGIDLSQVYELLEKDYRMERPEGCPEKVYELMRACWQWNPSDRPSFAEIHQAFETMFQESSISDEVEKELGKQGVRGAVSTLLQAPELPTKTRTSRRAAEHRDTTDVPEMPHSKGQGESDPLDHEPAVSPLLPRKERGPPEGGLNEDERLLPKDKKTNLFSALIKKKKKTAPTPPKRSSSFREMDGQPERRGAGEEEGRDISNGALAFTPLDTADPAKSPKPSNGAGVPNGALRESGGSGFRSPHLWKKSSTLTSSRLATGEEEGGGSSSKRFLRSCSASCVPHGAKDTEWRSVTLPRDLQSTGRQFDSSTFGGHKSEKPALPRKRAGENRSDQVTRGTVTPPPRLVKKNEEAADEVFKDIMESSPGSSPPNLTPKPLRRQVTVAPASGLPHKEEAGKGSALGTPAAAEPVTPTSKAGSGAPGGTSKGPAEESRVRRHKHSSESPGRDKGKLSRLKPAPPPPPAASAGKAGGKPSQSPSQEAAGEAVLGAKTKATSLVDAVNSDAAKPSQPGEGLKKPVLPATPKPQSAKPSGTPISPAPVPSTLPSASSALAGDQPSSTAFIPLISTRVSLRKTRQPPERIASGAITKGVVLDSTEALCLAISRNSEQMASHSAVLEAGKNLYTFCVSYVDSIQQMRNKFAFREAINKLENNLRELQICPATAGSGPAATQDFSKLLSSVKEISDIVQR
- experimentalProtocol: Cell growth inhibitory activity assay (CellTiter-Glo), Ba/F3 BCR-ABL1 WT cells
- experimentalContext: 72 h, CTG cell viability
pIC50: −log10 of the molar value.
Listing: pIC50 of selected compounds

Worked cases, pIC50 given:
compound | pIC50
[2H]C([2H])([2H])n1cc2c(n1)-c1cc(-c3cc(C(=O)Nc4ccc(OC(F)(F)Cl)cc4)cc4nc5n(c34)[C@H](C)COC5)cnc1C2 | ≥ 8.30
C[C@@H]1COCc2nc3cc(C(=O)Nc4ccc(OC(F)(F)Cl)cc4)cc(-c4cnc5c(c4)-c4nn(-c6nccn6C)cc4C5)c3n21 | ≥ 8.30
C[C@@H]1CCS(=O)(=O)c2nc3cc(C(=O)Nc4ccc(OC(F)(F)Cl)cc4)cc(-c4cnccn4)c3n21 | ≥ 8.30
C[C@@H]1COCc2nc3cc(C(=O)Nc4ccc(OC(F)(F)Cl)cc4)cc(-c4cnc5c(c4)-c4nn(-c6ncccn6)cc4C5O)c3n21 (stereo partly drawn) | ≥ 8.30
Cn1ccc2cnc(-n3cc4c(n3)-c3cc(-c5cc(C(=O)Nc6ccc(OC(F)(F)Cl)cc6)cnc5N5CC[C@@H](F)C5)cnc3C4)nc21 | ≥ 8.30

Request: Sample CC(=O)N[C@H]1CCC2c3cc(C(=O)Nc4ccc(OC(F)(F)Cl)cc4)cc(-c4cnc5c(c4)C(=O)N(C)C5)c3N(C(C)C)C21 (stereo partly drawn) — what was its pIC50?
Result: 6.00 to 7.30
